assayedSystem: X-box-binding protein 1 (Homo sapiens)
protocolSummary: ATG_Xbp1_CIS: Attagene CIS-FACTORIAL HepG2 Assay for human X-box Binding Protein 1 (XBP1) (AID 2282972)
settings: HepG2 XBP1 cis-element reporter, Attagene multiplex; actives raise or lower the signal
The source made the active and inactive calls. Rule for the calls: active = hit-call score of the fitted dose curve at least 0.9, where 1 is the maximum; inactive = score below 0.9.
Outcome codes: class 1 (active), class 0 (inactive)

INSERT INTO results (compound, classification) VALUES
  ('CCCCCCCCCCCCCCCC(=O)O', 'class 0'),
  ('Cc1ccc(O)c(C(C)(C)C)c1', 'class 1'),
  ('O=C(O)c1snc(Cl)c1Cl', 'class 1'),
  ('CCOC(=S)SSC(=S)OCC', 'class 0'),
  ('CCC(=O)/C=C/C1C(C)=CCCC1(C)C (stereo not given)', 'class 0'),
  ('CC(=O)c1c(C)cc(C(C)(C)C)cc1C', 'class 0'),
  ('NNc1nc(-c2ccc(N)cc2)cs1', 'class 0'),
  ('O=C(O)c1ccc([N+](=O)[O-])cc1', 'class 0'),
  ('Cc1cccc(C)c1[N+](=O)[O-]', 'class 0'),
  ('CC(C)(COC(=O)c1ccccc1)COC(=O)c1ccccc1', 'class 0'),
  ('O=C(O)c1cccc([N+](=O)[O-])c1', 'class 0'),
  ('C=CC(C)(C)O', 'class 0'),
  ('O=C(O)c1ccc(C(=O)O)cc1', 'class 0'),
  ('N#Cc1ccccc1', 'class 0'),
  ('C[C@H]1C[C@@H]2[C@H]([C@@H](O)C[C@@]3(C)[C@H]2CC[C@]3(O)C(=O)CO)[C@@]2(C)C=CC(=O)C=C12', 'class 0');

###

Read-out: Urokinase-type plasminogen activator receptor (uPAR), PLAUR (gene 5329)
protocolSummary: BSK_4H_uPAR: BioMAP Diversity Plus: 4H Assay for Urokinase-type plasminogen activator receptor (uPAR) Biomarker Activity (AID 2283030)
settings: primary human endothelial cells (HUVEC); actives raise or lower the signal
Activity calls are given as the source filed them. Rule for the calls: active = hit-call score of the fitted dose curve at least 0.9, where 1 is the maximum; inactive = score below 0.9.
Possible outcomes: active, inactive

INSERT INTO results (molecule, classification) VALUES
  ('CC(C)Oc1ccccc1O', 'inactive'),
  ('c1ccc2c(c1)c1cccc3ccc4cccc2c4c31', 'inactive'),
  ('Cc1ccc2n[nH]nc2c1', 'inactive'),
  ('C=CCOC(=O)CCC1CCCCC1', 'inactive'),
  ('COC(=O)c1ccc(C)cc1', 'inactive'),
  ('BrC1CCC(Br)C(Br)CCC(Br)C(Br)CCC1Br (centres undefined)', 'active'),
  ('c1ccc2sc(SN(C3CCCCC3)C3CCCCC3)nc2c1', 'inactive'),
  ('O=C(O)c1cn(-c2ccc(F)cc2)c2cc(N3CCNCC3)c(F)cc2c1=O', 'inactive'),
  ('O=C1OC2(c3cc(Br)c(O)c(Br)c3Oc3c2cc(Br)c(O)c3Br)c2c(Cl)c(Cl)c(Cl)c(Cl)c21', 'active');

###

protocolSummary: ATG_CRE_CIS: Attagene CIS-FACTORIAL HepG2 Assay for human cAMP Responsive Element (CRE) binding protein 3 (AID 2282926)
settings: HepG2 CRE cis-reporter, Attagene multiplexed mRNA; actives raise or lower the signal
Calls of active or inactive are those of the source. Rule for the calls: active = hit-call score of the fitted dose curve at least 0.9, where 1 is the maximum; inactive = score below 0.9.
Outcome codes: label 1 for active, label 0 for inactive

INSERT INTO assay_data (compound, classification) VALUES
  ('CO[Si](CCCn1c(=O)n(CCC[Si](OC)(OC)OC)c(=O)n(CCC[Si](OC)(OC)OC)c1=O)(OC)OC', 'label 0'),
  ('O=S(=O)(O)NC1CCCCC1', 'label 0'),
  ('C=C(C)C(=O)OCc1ccccc1', 'label 0'),
  ('C=CC(=O)NCOCC(C)C', 'label 0'),
  ('CC1(C)[C@@H]2CC[C@@]1(C)[C@H](O)C2', 'label 0'),
  ('COc1ccc(Cl)cc1C', 'label 0'),
  ('O=C(O)CN(CCN(CC(=O)O)CC(=O)O)CCN(CC(=O)O)CC(=O)O', 'label 0'),
  ('CC(C)c1cccc(O)c1', 'label 0'),
  ('CCCCCC=CCC(=O)OC', 'label 0'),
  ('C=C(C)C1CCC(C)CC1O (centres undefined)', 'label 0'),
  ('CO[Si](C)(OC)c1ccccc1', 'label 0'),
  ('CC(C)(CO)[N+](=O)[O-]', 'label 0'),
  ('CCCCOCCOCCOCCOCCO', 'label 0'),
  ('Clc1nc(C(Cl)(Cl)Cl)c(Cl)c(Cl)c1Cl', 'label 0'),
  ('CC(=O)c1c(C)cc(C(C)(C)C)cc1C', 'label 0'),
  ('Clc1ccc2c(c1)C(N1CCNCC1)=Nc1ccccc1O2', 'label 0'),
  ('COC(C(=O)O)c1ccccc1 (centres undefined)', 'label 0'),
  ('O=C(O)COCCN1CCN(C(c2ccccc2)c2ccc(Cl)cc2)CC1 (centres undefined)', 'label 0'),
  ('COc1ccc(O)cc1', 'label 0'),
  ('CC(=O)OCCC(C)CC(C)(C)C (centres undefined)', 'label 0'),
  ('Cc1c(N(C)C)c(=O)n(-c2ccccc2)n1C', 'label 0'),
  ('CCCCC(CC)COC(=O)/C=C\C(=O)OCC(CC)CCCC (centres undefined)', 'label 1'),
  ('CC(C)Oc1ccccc1O', 'label 0'),
  ('CCCC1CCC(=O)O1 (centres undefined)', 'label 0'),
  ('CCCCCC(=O)OCCc1ccccc1', 'label 0'),
  ('O=c1oc(=O)c2cc3c(=O)oc(=O)c3cc12', 'label 0'),
  ('O=c1cc(-c2ccccc2)oc2cc(O)cc(O)c12', 'label 0'),
  ('C/C=C(\C)C(=O)OCc1ccccc1', 'label 0'),
  ('C[C@H]1C[C@H]2[C@@H]3CCC4=CC(=O)C=C[C@]4(C)[C@@]3(F)[C@@H](O)C[C@]2(C)[C@@]1(O)C(=O)COP(=O)(O)O', 'label 0'),
  ('CCC(O)CO (centres undefined)', 'label 0'),
  ('CC1(CO)CN(c2ccccc2)NC1=O (centres undefined)', 'label 0'),
  ('NC(=O)Nc1ccc(Cl)cc1', 'label 0'),
  ('CC(CC(C)(C)C)CC(C)(C)CC(C)(C)C (centres undefined)', 'label 0'),
  ('CCCCCCC#CC(=O)OC', 'label 0'),
  ('NC(=O)NC1NC(=O)NC1=O (centres undefined)', 'label 0'),
  ('Cc1cc(C2(c3cc(C)c(O)cc3C)OS(=O)(=O)c3ccccc32)c(C)cc1O', 'label 0'),
  ('CCCCCCCCC', 'label 0'),
  ('CCCCCNCCCCC', 'label 0'),
  ('CC(C)C(C)(C)C(C)(C)C(C)(C)S', 'label 0'),
  ('CCCCC(CC)COCCC#N (centres undefined)', 'label 0'),
  ('c1cc(C(c2ccc(OCC3CO3)cc2)c2ccc(OCC3CO3)cc2)ccc1OCC1CO1 (centres undefined)', 'label 1'),
  ('COC(=O)c1ccc(C)cc1', 'label 0'),
  ('COC(C)CCO (centres undefined)', 'label 0'),
  ('CCCCCCCCCCCCCCCC(=O)OC[C@H](O)[C@H]1OC(=O)C(O)=C1O', 'label 1'),
  ('CC1CCC(C(C)(C)O)CC1 (centres undefined)', 'label 0'),
  ('OCCOc1cccc(OCCO)c1', 'label 0'),
  ('CC(=O)C(C)=O', 'label 0'),
  ('Cc1ccc(S)cc1', 'label 0'),
  ('CC(C)(C)C(=O)c1ccccc1', 'label 0');
